Experiment: Solubility of lumiflavin and FC12 in various solvents
Assay type: physicochemical
Conditions: DMF (N,N-dimethyl formamide), organic solvent or mixture; in DMF; read-out: FC12 solubility
ENDPOINT: solubility
Your reply should be a number followed by the unit it is expressed in.

Given item `CCCCCCCCCCCCn1c2nc(=O)[nH]c(=O)c-2nc2cc(C)c(C)cc21` , the value recorded as its solubility is 22.9 mg/mL

###

Assay: Solubility of lumiflavin and FC12 in various solvents
Format: physicochemical
Conditions: organic solvent or mixture; in o-xylene; read-out: FC12 solubility
ENDPOINT: solubility

Recorded solubility (molecule `CCCCCCCCCCCCn1c2nc(=O)[nH]c(=O)c-2nc2cc(C)c(C)cc21` ): 250 µg/mL

###

Assay: Solubility of lumiflavin and FC12 in various solvents
Format: physicochemical
Details: organic solvent or mixture; in pyridine; read-out: Lumiflavin solubility
ENDPOINT: solubility (µg/mL)
Number only, in µg/mL; omit the unit.

Lab book: solubility of `Cc1cc2nc3c(=O)[nH]c(=O)nc-3n(C)c2cc1C` noted as 529

###

Experiment: Solubility of lumiflavin and FC12 in various solvents
Assay type: physicochemical
Conditions: DMF (N,N-dimethyl formamide), organic solvent or mixture; in DMF; read-out: Lumiflavin solubility
ENDPOINT: solubility (µg/mL)
Supply the numeric figure in µg/mL, leaving out any unit text.

For this compound ( Cc1cc2nc3c(=O)[nH]c(=O)nc-3n(C)c2cc1C [Lumiflavin] ), measured solubility is 317

###

Experiment: Solubility of lumiflavin and FC12 in various solvents
Type: physicochemical
Conditions: organic solvent or mixture; in toluene; read-out: Lumiflavin solubility
ENDPOINT: solubility (µg/mL)
Give the value in µg/mL but do not write µg/mL after it.

Value of solubility reported for the compound Cc1cc2nc3c(=O)[nH]c(=O)nc-3n(C)c2cc1C [Lumiflavin] is 4.3

###

Assay: Solubility of lumiflavin and FC12 in various solvents
Type: physicochemical
Settings: organic solvent or mixture; in ethylacetate; read-out: Lumiflavin solubility
ENDPOINT: solubility (µg/mL)
Just the number please, in µg/mL, no unit attached.

Recorded result, Cc1cc2nc3c(=O)[nH]c(=O)nc-3n(C)c2cc1C [Lumiflavin] , solubility: 14.1

###

Assay: Solubility of lumiflavin and FC12 in various solvents
Assay type: physicochemical
Conditions: organic solvent or mixture; in acetone; read-out: Lumiflavin solubility
Source text: The facile nanotube individualization and high QYs afforded by FC12 in certain solvents, begs the question why these solvents behave so differently. The answer to this question is believed to originate from the relative solubility differences of the two FC12 sub-moieties (i.e., isoalloxazine ring and dodecyl side chain). For this, we procured 10-methyl isoalloxazine (lumiflavin), the closest analogue to the isoalloxazine ring, and investigated its solubility characteristics versus that of FC12. […]
ENDPOINT: solubility (mg/mL)
// units = mg/mL; emit number, no label

Value of solubility reported for the molecule `Cc1cc2nc3c(=O)[nH]c(=O)nc-3n(C)c2cc1C` is 0.0539

###

Test: Solubility of lumiflavin and FC12 in various solvents
Assay type: physicochemical
Conditions: organic solvent or mixture; in o-xylene; read-out: Lumiflavin solubility
ENDPOINT: solubility (µg/mL)
Record the value in µg/mL, omitting the unit from your answer.

Entry `Cc1cc2nc3c(=O)[nH]c(=O)nc-3n(C)c2cc1C` , solubility reported as 5.9

###

Assay: Solubility of lumiflavin and FC12 in various solvents
Assay type: physicochemical
Settings: organic solvent or mixture; in acetone; read-out: FC12 solubility
ENDPOINT: solubility (µg/mL)
Write the number in µg/mL without appending the unit.

The reported solubility of the molecule `CCCCCCCCCCCCn1c2nc(=O)[nH]c(=O)c-2nc2cc(C)c(C)cc21` was 1810

###

Test: Solubility of lumiflavin and FC12 in various solvents
Type: physicochemical
Details: organic solvent or mixture; in ethylacetate; read-out: FC12 solubility
ENDPOINT: solubility (µg/mL)
Numbers only; they are read as µg/mL.

Form field solubility, entry `CCCCCCCCCCCCn1c2nc(=O)[nH]c(=O)c-2nc2cc(C)c(C)cc21` : 510

###

Experiment: Solubility of lumiflavin and FC12 in various solvents
Assay type: physicochemical
Details: THF (tetrahydrofuran), organic solvent or mixture; in THF; read-out: FC12 solubility
ENDPOINT: solubility (mg/mL)
Express the result in mg/mL but write the number alone.

For record CCCCCCCCCCCCn1c2nc(=O)[nH]c(=O)c-2nc2cc(C)c(C)cc21 [FC12] the listed solubility is 11

###

Assay: Solubility of lumiflavin and FC12 in various solvents
Format: physicochemical
Details: THF (tetrahydrofuran), organic solvent or mixture; in THF; read-out: Lumiflavin solubility
Description: The facile nanotube individualization and high QYs afforded by FC12 in certain solvents, begs the question why these solvents behave so differently. The answer to this question is believed to originate from the relative solubility differences of the two FC12 sub-moieties (i.e., isoalloxazine ring and dodecyl side chain). For this, we procured 10-methyl isoalloxazine (lumiflavin), the closest analogue to the isoalloxazine ring, and investigated its solubility characteristics versus that of FC12. […]
ENDPOINT: solubility (µg/mL)
The figure you give is taken to be in µg/mL; do not add the unit.

// solubility lookup, compound = `Cc1cc2nc3c(=O)[nH]c(=O)nc-3n(C)c2cc1C` , result: 46.2

###

Experiment: Solubility of lumiflavin and FC12 in various solvents
Type: physicochemical
Details: organic solvent or mixture; in benzene; read-out: FC12 solubility
ENDPOINT: solubility
Please provide the amount together with its unit, number first.

CCCCCCCCCCCCn1c2nc(=O)[nH]c(=O)c-2nc2cc(C)c(C)cc21 [FC12] yielded solubility of 310 µg/mL
